Values from ChEMBL document CHEMBL3817750

Test: Selectivity index, ratio of IC50 for rat L6 cells to IC50 for epimastigote form of Trypanosoma cruzi CL Brener
Type: toxicity, cell-based
Conditions: read-out: Ratio IC50
Given measured selectivity ratio, output y if it is greater than or equal to 20 and n if not.

Consider the worked cases shown below.
{"compound": "O=C(CC1C2CC3CC(C2)CC1C3)N/N=C/c1ccc([N+](=O)[O-])o1 (centres undefined)", "class-assignment": "n"}
{"compound": "CCOC(=O)CC12CC3CC(CC(CC(=O)N/N=C/c4ccc([N+](=O)[O-])o4)(C3)C1)C2", "class-assignment": "y"}
{"compound": "O=C(CCC1C2CC3CC(C2)CC1C3)N/N=C/c1ccc([N+](=O)[O-])o1 (centres undefined)", "class-assignment": "n"}

Then this compound:
-- ask API: above_or_equal(metric=selectivity ratio, cutoff=20) for item O=C(CCC12CC3CC(CC(C3)C1)C2)N/N=C/c1ccc([N+](=O)[O-])o1
-- reply y

----------
I'd appreciate it if you could supply selectivity ratio values for the items below.
Assay: Selectivity index, ratio of IC50 for rat L6 cells to IC50 for epimastigote form of Trypanosoma cruzi CL Brener
Type: toxicity, cell-based
Details: read-out: Ratio IC50
Answers are plain numbers.

{"compound": "O=C(N/N=C/c1ccc([N+](=O)[O-])o1)C12CC3CC(CC(C3)C1)C2", "selectivity ratio": 14}
{"compound": "O=C(CC12CC3CC(C1)CC(c1ccccc1)(C3)C2)N/N=C/c1ccc([N+](=O)[O-])o1", "selectivity ratio": 55}
{"compound": "O=C(N/N=C/c1ccc([N+](=O)[O-])o1)C1C2CC3CC(C2)CC1C3 (centres undefined)", "selectivity ratio": 23}

Entry O=C(CCC12CC3CC(C1)CC(C1CCCC1)(C3)C2)N/N=C/c1ccc([N+](=O)[O-])o1 , selectivity ratio reported as 33

----------
Assay: Selectivity index, ratio of IC50 for rat L6 cells to IC50 for bloodstream form of Trypanosoma brucei 427
Assay type: toxicity, cell-based
Settings: read-out: Ratio IC50
Given measured selectivity ratio, output y if it is greater than or equal to 30 and n if not.

{"molecule": "O=C(N/N=C/c1ccc([N+](=O)[O-])o1)C12CC3CC(C1)CC(c1ccccc1)(C3)C2", "class-assignment": "y"}

-- ask API: above_or_equal(metric=selectivity ratio, cutoff=30) for item O=C(N/N=C/c1ccc([N+](=O)[O-])o1)C12CC3CC(CC(C3)C1)C2
-- reply n

-- ask API: above_or_equal(metric=selectivity ratio, cutoff=30) for item CCOC(=O)CC12CC3CC(CC(CC(=O)N/N=C/c4ccc([N+](=O)[O-])o4)(C3)C1)C2
-- reply y

----------
I'd appreciate it if you could supply selectivity ratio values for the items below.
Test: Selectivity index, ratio of IC50 for rat L6 cells to IC50 for epimastigote form of Trypanosoma cruzi CL Brener
Assay type: toxicity, cell-based
Settings: read-out: Ratio IC50
Give bare numbers.

{"given-smiles": "O=C(N/N=C/c1ccc([N+](=O)[O-])o1)C12CC3CC(C1)CC(C1CCCC1)(C3)C2", "selectivity ratio": 49}
{"given-smiles": "O=C(CC12CC3CC(C1)CC(C1CCCC1)(C3)C2)N/N=C/c1ccc([N+](=O)[O-])o1", "selectivity ratio": 49}
{"given-smiles": "O=C(CCC12CC3CC(C1)CC(c1ccccc1)(C3)C2)N/N=C/c1ccc([N+](=O)[O-])o1", "selectivity ratio": 17}
{"given-smiles": "O=C(N/N=C/c1ccc([N+](=O)[O-])o1)C12CC3CC(C1)CC(c1ccccc1)(C3)C2", "selectivity ratio": 31}

Entry O=C(CC12CC3CC(CC(C3)C1)C2)N/N=C/c1ccc([N+](=O)[O-])o1 , selectivity ratio reported as 15
